Give measured GI50 for each item. Keep answers brief.
- Test system: SK-MEL-28 melanoma
- ASSAY PROCEDURE: NCI tumour cell line growth inhibition, 48 h

Examples with their reported GI50 follow.
Q: Quick one: GI50 of `N#Cc1c(NCc2ccccc2)nc(NCc2ccccc2)c(C#N)c1-c1ccc(O)cc1` ?
A: 66.7 µM

Q: Now this one: `CC(=O)/C(=C/c1ccccc1)C(=O)CC(C)C`
A: 11.5 µM

Q: Now this one: `COC(=O)c1ccc2c(c1)C(=O)c1c-2n(CCCCl)c(=O)c2cc([N+](=O)[O-])ccc12`
A: > 100 µM

Q: Now this one: `NCCc1ccc(S(=O)(=O)F)cc1`
A: > 100 µM

Q: Now this one: CCN(CC)CCCC(C)Nc1ccnc2cc(Cl)ccc12 (stereo not given)
A: 39.9 µM

Q: Now this one: COC(=O)C1=C(O)[C@H](C(=O)OC)C2(O)C(C(=O)OC)[C@H](c3ccc(OC(=O)C(C)c4ccccc4)cc3)C[C@@H]1[C@@H]2C(=O)OC (stereo not given in full)
A: 26.7 µM

Q: Now this one: CCCCC(CCCCCC(CCCC)NCc1ccc2c(c1)OCO2)NCc1ccc2c(c1)OCO2 (stereo not given)
A: 0.188 µM

Q: Now this one: `CCCCCCCCCCCCCCCCCc1nccn1CCOCCO`
A: 6.22 µg/mL

Q: Now this one: `Cc1nc2c(c(N3CCCc4ccccc43)n1)CCC2`
A: 11.7 µM

Let us move to another entry and its GI50.
Q: Quick one: GI50 of `N.N.N.N.N.NC(=O)[O-].[Co+3].[I-]` ?
A: > 100 µM
